Experiment: In vitro metal competition study
Format: physicochemical
Details: Cu2+, PBS pH 7.4, 37 C, 7 d
reported-metric: % Intact of 89Zr-complexes (%)
Please reply with the bare figure in % and do not write the unit itself.

In: Determine from records and report % Intact of 89Zr-complexes for O=C1CN2CCN3CCN4CCN(CC2)CC(=O)[O][89Zr]([O]1)([O]C(=O)C3)[O]C(=O)C4 [89Zr-DOTA]
Out: 100

In: Determine from records and report % Intact of 89Zr-complexes for CC(=O)N1CCCCCNC(=O)CCC(=O)N2CCCCCNC(=O)CCC(=O)N(CCCCCN)[O][89Zr+]([O]1)[O]2 [89Zr-DFO, reference compound]
Out: 96.0

In: Determine from records and report % Intact of 89Zr-complexes for O=P1(O)CN2CCN3CCN4CCN(CC2)CP(=O)(O)[O][89Zr]([O]1)([O]P(=O)(O)C3)[O]P(=O)(O)C4 [89Zr-DOTP]
Out: 94.4

In: Determine from records and report % Intact of 89Zr-complexes for NC(=O)CN1CCN(CC(N)=O)CCN(CC(N)=O)CCN(CC(N)=O)CC1.[89Zr+4] [89Zr-DOTAM]
Out: 74.1

###

Experiment: In vitro EDTA challenge study
Assay type: physicochemical
Settings: EDTA 100-fold, pH 7.0, 37 C, 5 d
reported-metric: % Intact of 89Zr-complexes (%)
Please reply with the bare figure in % and do not write the unit itself.

In: Determine from records and report % Intact of 89Zr-complexes for NC(=O)CN1CCN(CC(N)=O)CCN(CC(N)=O)CCN(CC(N)=O)CC1.[89Zr+4] [89Zr-DOTAM]
Out: 75.7

In: Determine from records and report % Intact of 89Zr-complexes for O=P1(O)CN2CCN3CCN4CCN(CC2)CP(=O)(O)[O][89Zr]([O]1)([O]P(=O)(O)C3)[O]P(=O)(O)C4 [89Zr-DOTP]
Out: 94.5

In: Determine from records and report % Intact of 89Zr-complexes for O=C1CN2CCN3CCN4CCN(CC2)CC(=O)[O][89Zr]([O]1)([O]C(=O)C3)[O]C(=O)C4 [89Zr-DOTA]
Out: 100

In: Determine from records and report % Intact of 89Zr-complexes for CC(=O)N1CCCCCNC(=O)CCC(=O)N2CCCCCNC(=O)CCC(=O)N(CCCCCN)[O][89Zr+]([O]1)[O]2 [89Zr-DFO, reference compound]
Out: 86.6

###

Experiment: In vitro metal competition study
Type: physicochemical
Details: Fe3+, PBS pH 7.4, 37 C, 7 d
reported-metric: % Intact of 89Zr-complexes

In: Determine from records and report % Intact of 89Zr-complexes for CC(=O)N1CCCCCNC(=O)CCC(=O)N2CCCCCNC(=O)CCC(=O)N(CCCCCN)[O][89Zr+]([O]1)[O]2 [89Zr-DFO, reference compound]
Out: 33.9 ± 1.5%

In: Determine from records and report % Intact of 89Zr-complexes for O=C1CN2CCN3CCN4CCN(CC2)CC(=O)[O][89Zr]([O]1)([O]C(=O)C3)[O]C(=O)C4 [89Zr-DOTA]
Out: 100%

In: Determine from records and report % Intact of 89Zr-complexes for NC(=O)CN1CCN(CC(N)=O)CCN(CC(N)=O)CCN(CC(N)=O)CC1.[89Zr+4] [89Zr-DOTAM]
Out: 85.8 ± 0.8%

In: Determine from records and report % Intact of 89Zr-complexes for O=P1(O)CN2CCN3CCN4CCN(CC2)CP(=O)(O)[O][89Zr]([O]1)([O]P(=O)(O)C3)[O]P(=O)(O)C4 [89Zr-DOTP]
Out: 84.0 ± 0.4%

###

Provide the recorded % Intact of 89Zr-complexes for the entries that follow.
Test: In vitro EDTA challenge study
Type: physicochemical
Settings: EDTA 100-fold, pH 5.0, 37 C, 5 d
Please reply with the bare figure in % and do not write the unit itself.

In: Determine from records and report % Intact of 89Zr-complexes for CC(=O)N1CCCCCNC(=O)CCC(=O)N2CCCCCNC(=O)CCC(=O)N(CCCCCN)[O][89Zr+]([O]1)[O]2 [89Zr-DFO, reference compound]
Out: 4.4

In: Determine from records and report % Intact of 89Zr-complexes for NC(=O)CN1CCN(CC(N)=O)CCN(CC(N)=O)CCN(CC(N)=O)CC1.[89Zr+4] [89Zr-DOTAM]
Out: 49.6

In: Determine from records and report % Intact of 89Zr-complexes for O=C1CN2CCN3CCN4CCN(CC2)CC(=O)[O][89Zr]([O]1)([O]C(=O)C3)[O]C(=O)C4 [89Zr-DOTA]
Out: 100

In: Determine from records and report % Intact of 89Zr-complexes for O=P1(O)CN2CCN3CCN4CCN(CC2)CP(=O)(O)[O][89Zr]([O]1)([O]P(=O)(O)C3)[O]P(=O)(O)C4 [89Zr-DOTP]
Out: 78.6

###

Provide the recorded % Intact of 89Zr-complexes for the entries that follow.
Assay: In vitro metal competition study
Assay type: physicochemical
Conditions: Fe3+, PBS pH 7.4, 37 C, 1 d
Procedure: In vitro Metal Competition study. To a solution of metal cations [iron (III) chloride, cobalt (II) chloride, zinc (II) chloride, copper (II) chloride, magnesium (II) chloride, gallium (III) nitrate, gadolinium (III) chloride] (1 mM, 200 µL), was added 89Zr-labeled complex (0.1 mM, 10 µL, 80 μCi, 2.96 MBq) in PBS, pH 7.4. […] Dissociation of 89Zr from 89Zr-complexes was monitored by radio-TLC at 2 h, 1 d, 4 d and 7 d time point. […]
Please reply with the bare figure in % and do not write the unit itself.

In: Determine from records and report % Intact of 89Zr-complexes for NC(=O)CN1CCN(CC(N)=O)CCN(CC(N)=O)CCN(CC(N)=O)CC1.[89Zr+4] [89Zr-DOTAM]
Out: 89.8

In: Determine from records and report % Intact of 89Zr-complexes for CC(=O)N1CCCCCNC(=O)CCC(=O)N2CCCCCNC(=O)CCC(=O)N(CCCCCN)[O][89Zr+]([O]1)[O]2 [89Zr-DFO, reference compound]
Out: 76.1

In: Determine from records and report % Intact of 89Zr-complexes for O=P1(O)CN2CCN3CCN4CCN(CC2)CP(=O)(O)[O][89Zr]([O]1)([O]P(=O)(O)C3)[O]P(=O)(O)C4 [89Zr-DOTP]
Out: 96.8

In: Determine from records and report % Intact of 89Zr-complexes for O=C1CN2CCN3CCN4CCN(CC2)CC(=O)[O][89Zr]([O]1)([O]C(=O)C3)[O]C(=O)C4 [89Zr-DOTA]
Out: 100

###

Provide the recorded % Intact of 89Zr-complexes for the entries that follow.
Assay: In vitro EDTA challenge study
Assay type: physicochemical
Conditions: EDTA 500-fold, pH 7.0, 37 C, 7 d
Please reply with the bare figure in % and do not write the unit itself.

In: Determine from records and report % Intact of 89Zr-complexes for O=P1(O)CN2CCN3CCN4CCN(CC2)CP(=O)(O)[O][89Zr]([O]1)([O]P(=O)(O)C3)[O]P(=O)(O)C4 [89Zr-DOTP]
Out: 89.3

In: Determine from records and report % Intact of 89Zr-complexes for O=C1CN2CCN3CCN4CCN(CC2)CC(=O)[O][89Zr]([O]1)([O]C(=O)C3)[O]C(=O)C4 [89Zr-DOTA]
Out: 100

In: Determine from records and report % Intact of 89Zr-complexes for CC(=O)N1CCCCCNC(=O)CCC(=O)N2CCCCCNC(=O)CCC(=O)N(CCCCCN)[O][89Zr+]([O]1)[O]2 [89Zr-DFO, reference compound]
Out: 28.5

In: Determine from records and report % Intact of 89Zr-complexes for NC(=O)CN1CCN(CC(N)=O)CCN(CC(N)=O)CCN(CC(N)=O)CC1.[89Zr+4] [89Zr-DOTAM]
Out: 58.1

###

Test: In vitro metal competition study
Type: physicochemical
Conditions: Ga3+, PBS pH 7.4, 37 C, 2 h
Provide the recorded % Intact of 89Zr-complexes for the entries that follow.
Please reply with the bare figure in % and do not write the unit itself.

In: Determine from records and report % Intact of 89Zr-complexes for CC(=O)N1CCCCCNC(=O)CCC(=O)N2CCCCCNC(=O)CCC(=O)N(CCCCCN)[O][89Zr+]([O]1)[O]2 [89Zr-DFO, reference compound]
Out: 99.3

In: Determine from records and report % Intact of 89Zr-complexes for O=C1CN2CCN3CCN4CCN(CC2)CC(=O)[O][89Zr]([O]1)([O]C(=O)C3)[O]C(=O)C4 [89Zr-DOTA]
Out: 100

In: Determine from records and report % Intact of 89Zr-complexes for O=P1(O)CN2CCN3CCN4CCN(CC2)CP(=O)(O)[O][89Zr]([O]1)([O]P(=O)(O)C3)[O]P(=O)(O)C4 [89Zr-DOTP]
Out: 99.2

In: Determine from records and report % Intact of 89Zr-complexes for NC(=O)CN1CCN(CC(N)=O)CCN(CC(N)=O)CCN(CC(N)=O)CC1.[89Zr+4] [89Zr-DOTAM]
Out: 92.9
